Target: T1, mouse GPRC5D (mouse, UniProt Q9JIL6 1-344)
T1 construct: whole, on cells; HEK293T-mGPRC5D cells; also called mGPRC5D; murine GPRC5D
T1 sequence (looked up): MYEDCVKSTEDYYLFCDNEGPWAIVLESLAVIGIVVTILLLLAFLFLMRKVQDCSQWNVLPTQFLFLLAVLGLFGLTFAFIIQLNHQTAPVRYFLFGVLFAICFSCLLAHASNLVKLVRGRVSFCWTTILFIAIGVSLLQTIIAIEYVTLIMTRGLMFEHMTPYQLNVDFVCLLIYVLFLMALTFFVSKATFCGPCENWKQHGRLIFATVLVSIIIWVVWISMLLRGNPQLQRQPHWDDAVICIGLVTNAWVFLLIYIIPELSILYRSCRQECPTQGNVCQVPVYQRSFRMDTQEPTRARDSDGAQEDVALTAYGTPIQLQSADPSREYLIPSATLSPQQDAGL
Assay: FACS, HEK293T-mGPRC5D cells
measure: Top
Answer with a number only.

Some entries whose results are on file:
binder: ch98A3A8 (antibody, V domains shown) VH: EVQLQQSGPELVKPGASVKMSCKASGYTFTYYVTHWVRQKPGQGLEWIGYINPYNDGTMFNEKFKGKATLTSDKSSSTAYMEFSSLTSEDSAVFYCARGGVRRYFDVWGAGTTVTVSS VL: DIQMTQSPSSLSASLGERVSLTCRASQDIGSNLNWLQQKPDGTIKRLIYATSSLDSGVPKRFSGSRSGSDYSLTINSLESEDFVDYYCLQYASFPYTFGGGTKLEIK
Top: 26000

binder: ch110B4H5 (antibody, V domains shown) VH: EVQLQQSGPELVKPGASVKMSCKASGYTFTFYIMHWVKQKPGQGPEWIGYINPYNDGTKYNAKFKGKATLSSDRSSSTAYMELSSLTSEDSAVYYCARGGVRRYFDVWGAGTPVTVSS VL: DIQMTQSPSSLSASLGERVSLTCRSSQDIGSNLNWLQQEPDGTIKRLIYATFSLDSGVPKRFSGSRSGSHYSLTISSLESEDFVVYYCLQYGSFPYTFGGGTKLEIK
Top: 42900

binder: ch20C4E1 (antibody, V domains shown) VH: EVRLVESGGALVRPGGSLKLSCAASGFTFSDYGMHWVRQAPEKGLEWIAFISSVSFTIYYADTVKGRFTISRDNAKNTLFLQMTSLRSEDTALYYCTRLGPHWYFDVWGTGTTVTVSS VL: DVVLTQTPLSLPVSLGDQASISCRSSQSLVYSNGNTYLHWFLQKPGQSPQLLIYKVSNRFSGVPDRFSGSGSGTDFTLKISRVEAEDLGVYFCSQSTPVPTFGGGTKLEIK
Top: 5.06e+06

Exercise: Tell me the measured Top of ch90G6H3 (antibody, V domains shown) VH: QAYLQQSGAELVRSGASVKMSCKASGYTFTSYIMHWVKQTPGQGLEWIGYIYPGNGGTNYNQKFKDKATLSADTSSSTAYMQINSLTSEDSAVYFCARWGLRQGFAYWGQGTLVSVSA VL: DIVMTQSQKFMSTSVGDRVSVTCKASQNVGGNVAWYQQKPGQSPKALIYSTSYRNSGVPDRFTGSGSGTDFTLTISNVQSEDLAEYFCQQYNSYPFTFGSGTKLEIR , please.
Key: 55300

Exercise: GET /values?readout=Top&item= ch87A3G8 (antibody, V domains shown) VH: QVQLKESGPGLVAPSQSLSITCTVSGFSLSSYSVYWVRQPPGKGLEWLGVIWAGGSTNYNSALMSRLSINKDKSKSQVFLKMNSLQTDDSAIYYCAMRWLPRGLDFWGQGTSVTVSS VL: DIVMTQSHKFMSTSVGDRVSITCKASQDVGTAVAWYQQKPGQSPKLLIYWASTRHTGVPDRFTGSGSGTDFTLTISNVQSEDLADYFCQQYSTYYTFGGGTKLEIK
Key: 76200
